# System: CD2F1 mice, L1210 leukemia ip, survival T/C
# assay_info: NCI In Vivo Anticancer Drug Screen. Data for tumor model L1210 Leukemia (intraperitoneal) in CD2F1 (CDF1) mice
# setup_conditions: endpoint: mean survival time; dose: 100.0 mg/kg/injection; schedule: Q04DX003 (ip); vehicle: saline with Tween-80; higher = longer survival
Inconclusive results and toxic doses are left out.
readout_label: T/C

In [3]: df
Out[3]:
                                    compound    recorded_value
 0                   CC(C)(C)NC(=S)Nc1ccccc1   94 % of control
 1         CCOC(=O)c1cc(C)nc2c(Cl)cc(Cl)cc12   87 % of control
 2  CCCCCCCCCCCCCCCCOc1ccccc1CNc1cc(Cl)ccc1Cl   95 % of control
 3  C[C@@H]1CC2=CC(=O)CC[C@]2(C)[C@H]2CC[C@]3(C)[C@@H](O)CC[C@H]3[C@H]12   98 % of control
 4   C1=CC2C=CC12 (configuration not stated)   95 % of control
 5  CCOC(=O)c1c(C)nc(C)c(C(=O)OCC)c1-c1ccc(N(C)C)cc1  104 % of control
 6         COc1ccc(C2=CC(=O)N(C(C)C)C2=O)cc1   98 % of control
 7   COc1ccc(OC)c(/C=N/N=C/c2cc(OC)ccc2OC)c1  106 % of control
 8                         O=c1cccc(Cl)[nH]1   98 % of control
 9                          N=C(N)SCc1ccccc1  100 % of control
10             CC(=O)Nc1ccccc1OC(=O)c1ccccc1  101 % of control
11                     C/C(=N\N)c1ccc(Cl)cc1  103 % of control

====

Examples of compounds with documented T/C follow.
# System: CD2F1 mice, L1210 leukemia ip, survival T/C
# assay_info: NCI In Vivo Anticancer Drug Screen. Data for tumor model L1210 Leukemia (intraperitoneal) in CD2F1 (CDF1) mice
# setup_conditions: endpoint: mean survival time; dose: 100.0 mg/kg/injection; schedule: Q04DX003 (ip); vehicle: saline with Tween-80; higher = longer survival
Inconclusive results and toxic doses are left out.
readout_label: T/C

>>> print(df.to_string())
                                    compound                                    system    recorded_value
 0  COC(=O)c1cncn1C(C)c1cccc2ccccc12 (stereo not drawn)  CD2F1 mice, L1210 leukemia ip, survival T/C  108 % of control
 1          Nc1c(Cl)cccc1C(=O)c1ccccc1C(=O)O  CD2F1 mice, L1210 leukemia ip, survival T/C  101 % of control
 2  Fc1ccc2c(c1)C(Br)c1ccccc1-2 (stereo not drawn)  CD2F1 mice, L1210 leukemia ip, survival T/C  108 % of control
 3  CC(=O)N(c1c(-c2ccccc2)nc2ccccc2c1C(=O)O)C1CCCCC1  CD2F1 mice, L1210 leukemia ip, survival T/C  102 % of control
 4             CCOC(=O)CCC1(CCC(=O)OCC)OCCO1  CD2F1 mice, L1210 leukemia ip, survival T/C   93 % of control
 5  COC(=O)C(c1ccccc1)C(SCc1ccccc1)c1ccccc1 (stereo not drawn)  CD2F1 mice, L1210 leukemia ip, survival T/C  103 % of control
 6   CCC(C(N)=O)C1=CCCCC1 (stereo not drawn)  CD2F1 mice, L1210 leukemia ip, survival T/C  103 % of control
 7       CC(=O)Nc1ccc(C(C)=O)cc1[N+](=O)[O-]  CD2F1 mice, L1210 leukemia ip, survival T/C  101 % of control
 8                            N#CCCSc1ccccc1  CD2F1 mice, L1210 leukemia ip, survival T/C   90 % of control
 9  c1ccc(C(=NCCN=C(c2ccccc2)c2ccccc2)c2ccccc2)cc1  CD2F1 mice, L1210 leukemia ip, survival T/C   97 % of control
10                  CC(C)OC(=O)Nc1ccc(F)cc1F  CD2F1 mice, L1210 leukemia ip, survival T/C   96 % of control
11  CCOC(=O)C(OCc1ccccc1)(C(=O)N1CCCCCC1=O)C(C)C (stereo not drawn)  CD2F1 mice, L1210 leukemia ip, survival T/C  100 % of control
12  O=C(Nc1ccc2c3c(ccc(C(=O)O)c13)CC2)c1ccccc1  CD2F1 mice, L1210 leukemia ip, survival T/C   97 % of control
13  CN(C)C(=O)c1cccc(COc2ccc([N+](=O)[O-])cc2Cl)c1  CD2F1 mice, L1210 leukemia ip, survival T/C  101 % of control
14  CN1C(=O)c2ccccc2C1(/N=C/c1ccccc1)c1ccccc1 (stereo not drawn)  CD2F1 mice, L1210 leukemia ip, survival T/C   96 % of control
15  Cc1c2ccccc2c(CSCCC(N)C(=O)O)c2ccc3ccccc3c12 (stereo not drawn)  CD2F1 mice, L1210 leukemia ip, survival T/C   96 % of control
16                CNC(=S)N(C1CCCCC1)C1CCCCC1  CD2F1 mice, L1210 leukemia ip, survival T/C  111 % of control
17  O=c1nc(OCCO)c([N+](=O)[O-])c(C(Cl)(Cl)Cl)[nH]1  CD2F1 mice, L1210 leukemia ip, survival T/C   96 % of control

Data provenance is PubChem BioAssay AID256.
